Values were extracted from patent US20250115577A1.

pIC50: −log10 of the molar value.
BCL-xL (Homo sapiens (Human)) measurements of pIC50, listed per entry.
Sequence (Q07817 whole entry): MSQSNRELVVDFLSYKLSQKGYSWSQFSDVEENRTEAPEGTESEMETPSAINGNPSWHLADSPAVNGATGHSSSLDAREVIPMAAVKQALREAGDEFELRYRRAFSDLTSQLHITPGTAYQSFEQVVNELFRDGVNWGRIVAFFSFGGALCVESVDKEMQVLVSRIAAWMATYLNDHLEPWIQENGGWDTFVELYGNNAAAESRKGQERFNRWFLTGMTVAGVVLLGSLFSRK

[Q] Give pIC50 for the following molecule: COc1cccc(CN(C(=O)c2cc(-c3ccc(OC(F)F)cc3C(=O)N3Cc4ccccc4C[C@H]3CN3CCOCC3)n(C)c2C)c2ccc(O)cc2)c1C [Compound 31]
[A] 5.30 to 5.70

[Q] Give pIC50 for the following molecule: COc1cccc(CN(C(=O)c2cc(-c3cc(C(F)F)c(Cl)cc3C(=O)N3Cc4ccccc4C[C@H]3CN3CCOCC3)n(C)c2C)c2ccc(O)cc2)c1C [Compound 43]
[A] 5.30 to 5.70

[Q] Give pIC50 for the following molecule: Cc1c(C(=O)N(Cc2ccccc2C#N)c2ccc3[nH]ncc3c2)cc(-c2cc(Cl)ccc2C(=O)N2Cc3ccccc3C[C@H]2CN2CCOCC2)n1C [Compound 68]
[A] < 5.30

[Q] Give pIC50 for the following molecule: Cc1c(C(=O)N(Cc2ccccc2C#N)c2ccc3cn[nH]c3c2)cc(-c2cc([N+](=O)[O-])ccc2C(=O)N2Cc3ccccc3C[C@H]2CN2CCOCC2)n1C [Compound 66]
[A] < 5.30

[Q] Give pIC50 for the following molecule: COc1cccc(CN(C(=O)c2cc(-c3cc([N+](=O)[O-])ccc3C(=O)N3Cc4ccccc4C[C@H]3CN3CCOCC3)n(C)c2C)c2ccc3cn[nH]c3c2)c1C [Compound 67]
[A] < 5.30

[Q] Give pIC50 for the following molecule: COc1cccc(CN(C(=O)c2cc(-c3cc(C(F)F)c(Cl)cc3C(=O)N3Cc4ccccc4C[C@H]3CN3CCOCC3)n(C)c2C)c2ccc(C#N)cc2)c1C [Compound 24]
[A] 5.30 to 5.70
